src = patent US20200216416A1

For each record, write down the corresponding pIC50.
# experimental_system: His-tagged recombinant human MER cytoplasmic domain (Homo sapiens, UniProt Q12866)
# Construct: His-tagged recombinant human MER cytoplasmic domain
# Sequence (Q12866 527-999 limits assumed): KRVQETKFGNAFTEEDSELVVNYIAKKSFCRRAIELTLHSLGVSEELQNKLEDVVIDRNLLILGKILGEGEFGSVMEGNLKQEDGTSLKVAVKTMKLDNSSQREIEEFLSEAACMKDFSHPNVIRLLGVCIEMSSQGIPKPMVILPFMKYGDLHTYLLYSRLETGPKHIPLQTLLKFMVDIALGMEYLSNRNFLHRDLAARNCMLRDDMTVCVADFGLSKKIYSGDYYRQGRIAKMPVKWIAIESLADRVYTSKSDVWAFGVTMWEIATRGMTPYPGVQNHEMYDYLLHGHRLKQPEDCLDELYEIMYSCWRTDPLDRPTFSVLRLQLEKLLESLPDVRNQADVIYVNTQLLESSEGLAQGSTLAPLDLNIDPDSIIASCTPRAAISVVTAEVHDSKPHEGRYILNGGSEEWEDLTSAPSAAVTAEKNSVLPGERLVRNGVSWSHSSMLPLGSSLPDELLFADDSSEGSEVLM
# procedure_details: MER Enzyme Assay (LanthaScreen Eu Kinase Binding)
# measurement_context: averaged IC50; MER 5 nM; 60-minute incubation at 22° C.; TR-FRET
Answers are plain numbers, as −log10 of the molar value.

Below, 8 compounds whose answers are already recorded.
COc1cc2nccc(Oc3ccc(NC(=O)c4cn(C(C)C)cc(-c5ccc(F)cc5)c4=O)nc3)c2cc1OC = 8.52
COc1cc2nccc(Oc3ccc(NC(=O)c4cn(C(C)C)c(C(C)C)c(-c5ccc(F)cc5)c4=O)nc3)c2cc1OC = 8.22
COc1cc2nccc(Oc3cnc(NC(=O)c4cn(C(C)C)c(C)c(-c5ccc(F)cc5)c4=O)nc3)c2cc1OC = 8.30
COc1cc2nccc(Oc3ccc(NC(=O)c4cn(CC5CCOCC5)cc(-c5ccc(F)cc5)c4=O)nc3)c2cc1OC = 8.40
COc1cc2nccc(Oc3ccc(NC(=O)c4cn(CCN(C)C)cc(-c5ccc(Cl)cc5)c4=O)nc3)c2cc1OC = 8.05
COc1cc2nc(C)cc(Oc3ccc(NC(=O)c4cn(C(C)C)cc(-c5ccc(F)cc5)c4=O)nc3)c2cc1OC = 6.02
COc1ccc2nccc(Oc3ccc(NC(=O)c4cn(C(C)C)cc(-c5ccc(F)cc5)c4=O)nc3)c2c1 = 7.72
COc1cc2nccc(Oc3ccc(NC(=O)c4cn(CCC(C)C)cc(-c5ccc(F)cc5)c4=O)nc3)c2cc1OC = 8.05

// each listed compound needs a value for pIC50
1. COc1cc2nccc(Oc3ccc(NC(=O)c4cn(CCC(C)C)cc(-c5ccc(Cl)cc5)c4=O)nc3)c2cc1OC
2. COc1ccc2nccc(Oc3ccc(NC(=O)c4cn(C)cc(-c5ccc(F)cc5)c4=O)nc3)c2c1
3. COc1cc2nccc(Oc3ccc(NC(=O)c4cn(C5CCOCC5)cc(-c5ccc(F)cc5)c4=O)nc3)c2cc1OC
4. COc1cc2nccc(Oc3ccc(NC(=O)c4cn(C(C)C)cc(-c5ccc(F)c(F)c5)c4=O)nc3)c2cc1OC
5. COc1cc2c(Oc3ccc(NC(=O)c4cn(C(C)C)cc(-c5ccc(F)cc5)c4=O)nc3)ccnc2cc1F

*A*
7.80
7.48
8.40
8.30
8.30

*Q* If you can, please state the reported pIC50 value of COc1cc2nccc(Oc3ccc(NC(=O)c4cn(CC(C)(C)O)cc(-c5ccc(F)cc5)c4=O)nc3)c2cc1OC .
*A* 8.52
